Reference for the values: ChEMBL document CHEMBL4359919

target: ATP-dependent translocase ABCB1 (Homo sapiens, UniProt P08183); experiment: Reversal of P-gp-mediated multidrug resistance in human KBV cells assessed as potentiation of paclitaxel-induced cytotoxicity by measuring cell survival at 5 uM after 72 hrs by MTT assay (reference value: 100.58 +/- 7.78%); assay type: cell-based
Sequence (P08183 whole entry): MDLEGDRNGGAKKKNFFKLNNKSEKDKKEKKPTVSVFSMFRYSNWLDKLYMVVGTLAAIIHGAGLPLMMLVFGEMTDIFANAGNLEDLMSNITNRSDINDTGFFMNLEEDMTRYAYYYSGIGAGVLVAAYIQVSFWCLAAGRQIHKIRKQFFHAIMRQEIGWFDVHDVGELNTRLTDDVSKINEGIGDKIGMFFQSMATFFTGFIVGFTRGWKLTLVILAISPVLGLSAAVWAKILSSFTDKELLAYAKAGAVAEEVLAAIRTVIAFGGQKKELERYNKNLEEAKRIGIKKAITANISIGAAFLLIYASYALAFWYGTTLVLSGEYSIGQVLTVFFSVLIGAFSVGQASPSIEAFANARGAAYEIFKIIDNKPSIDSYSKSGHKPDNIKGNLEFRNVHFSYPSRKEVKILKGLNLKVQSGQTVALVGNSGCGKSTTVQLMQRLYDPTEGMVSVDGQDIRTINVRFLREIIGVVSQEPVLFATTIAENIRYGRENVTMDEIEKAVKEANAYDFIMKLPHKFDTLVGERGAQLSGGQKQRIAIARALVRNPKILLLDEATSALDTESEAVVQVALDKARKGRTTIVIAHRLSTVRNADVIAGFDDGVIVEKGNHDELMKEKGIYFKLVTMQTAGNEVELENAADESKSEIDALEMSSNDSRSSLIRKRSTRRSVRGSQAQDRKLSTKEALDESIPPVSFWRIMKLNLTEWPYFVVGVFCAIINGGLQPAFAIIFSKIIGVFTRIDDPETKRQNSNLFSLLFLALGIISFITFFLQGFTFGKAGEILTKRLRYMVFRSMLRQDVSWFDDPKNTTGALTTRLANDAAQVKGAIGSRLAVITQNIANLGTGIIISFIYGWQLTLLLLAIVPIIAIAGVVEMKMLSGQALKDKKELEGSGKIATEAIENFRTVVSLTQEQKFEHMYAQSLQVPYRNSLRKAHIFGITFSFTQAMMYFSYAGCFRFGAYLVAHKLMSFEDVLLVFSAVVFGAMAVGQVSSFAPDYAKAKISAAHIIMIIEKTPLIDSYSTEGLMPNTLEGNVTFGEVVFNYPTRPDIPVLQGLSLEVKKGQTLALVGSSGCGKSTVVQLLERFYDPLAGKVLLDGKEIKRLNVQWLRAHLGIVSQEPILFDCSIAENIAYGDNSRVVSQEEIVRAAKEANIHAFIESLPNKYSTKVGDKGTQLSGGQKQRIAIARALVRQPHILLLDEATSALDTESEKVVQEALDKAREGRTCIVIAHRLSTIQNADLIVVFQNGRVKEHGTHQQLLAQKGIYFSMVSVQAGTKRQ
Label class 0 if Survival falls below 40%; label class 1 in every other case.

compound	assayTarget	classLabel
CC(=O)O[C@H]1C[C@@]2(C)[C@@H](CC(=O)[C@H]3[C@@]4(C)CCC(=O)[C@@H](C)[C@@H]4CC[C@@]32C)/C1=C(\CCC=C(C)C)C(=O)OCc1ccccc1	ATP-dependent translocase ABCB1 (Homo sapiens, UniProt P08183)	class 0
CC(=O)O[C@H]1C[C@@]2(C)[C@@H](C[C@@H](O)[C@H]3[C@@]4(C)CC[C@@H](OC(=O)CCCCCO[N+](=O)[O-])[C@@H](C)[C@@H]4CC[C@@]32C)/C1=C(\CCC=C(C)C)C(=O)OCc1ccccc1	ATP-dependent translocase ABCB1 (Homo sapiens, UniProt P08183)	class 0
CC(=O)O[C@H]1C[C@@]2(C)[C@@H](C[C@@H](O)[C@H]3[C@@]4(C)CC[C@@H](OC(=O)c5ccccc5C(=O)N5CCN(C)CC5)[C@@H](C)[C@@H]4CC[C@@]32C)/C1=C(\CCC=C(C)C)C(=O)OCc1ccccc1	ATP-dependent translocase ABCB1 (Homo sapiens, UniProt P08183)	class 1
CC(=O)O[C@H]1C[C@@]2(C)[C@@H](C[C@@H](O)[C@H]3[C@@]4(C)CC[C@@H](O)[C@@H](C)[C@@H]4CC[C@@]32C)/C1=C(\CCC=C(C)C)C(=O)O [FUSIDIC ACID]	ATP-dependent translocase ABCB1 (Homo sapiens, UniProt P08183)	class 1
CC(=O)O[C@H]1C[C@@]2(C)[C@@H](C[C@@H](O)[C@H]3[C@@]4(C)CC[C@@H](OC(=O)CCC(=O)Nc5cccc(N)c5)[C@@H](C)[C@@H]4CC[C@@]32C)/C1=C(\CCC=C(C)C)C(=O)OCc1ccccc1	ATP-dependent translocase ABCB1 (Homo sapiens, UniProt P08183)	class 0
CC(=O)O[C@H]1C[C@@]2(C)[C@@H](C[C@@H](O)[C@H]3[C@@]4(C)CC[C@@H](OC(=O)c5ccccc5C(=O)N5CCCCC5)[C@@H](C)[C@@H]4CC[C@@]32C)/C1=C(\CCC=C(C)C)C(=O)OCc1ccccc1	ATP-dependent translocase ABCB1 (Homo sapiens, UniProt P08183)	class 0
CC(=O)O[C@H]1C[C@@]2(C)[C@@H](C[C@@H](O)[C@H]3[C@@]4(C)CC[C@@H](O)[C@@H](C)[C@@H]4CC[C@@]32C)/C1=C(\CCC=C(C)C)C(=O)OCc1ccccc1	ATP-dependent translocase ABCB1 (Homo sapiens, UniProt P08183)	class 0
CC(=O)O[C@H]1C[C@@]2(C)[C@@H](C[C@@H](O)[C@H]3[C@@]4(C)CC[C@@H](OC(=O)CCC(=O)N5CCN(C)CC5)[C@@H](C)[C@@H]4CC[C@@]32C)/C1=C(\CCC=C(C)C)C(=O)OCc1ccccc1	ATP-dependent translocase ABCB1 (Homo sapiens, UniProt P08183)	class 0
CC(=O)O[C@H]1C[C@@]2(C)[C@@H](CC(=O)[C@H]3[C@@]4(C)CC[C@@H](OC(=O)CCCCCO[N+](=O)[O-])[C@@H](C)[C@@H]4CC[C@@]32C)/C1=C(\CCC=C(C)C)C(=O)OCc1ccccc1	ATP-dependent translocase ABCB1 (Homo sapiens, UniProt P08183)	class 1

###

assay: Cytotoxicity against human KBV cells assessed as cell survival at 5 uM after 72 hrs by MTT assay relative to control; type: cell-based; conditions: read-out: Survival

chemicalString	viability at 72 h, 5 µM (%)
CC(=O)O[C@H]1C[C@@]2(C)[C@@H](C[C@@H](O)[C@H]3[C@@]4(C)CC[C@@H](OC(=O)CCC(=O)OCCc5ccc(OCCO[N+](=O)[O-])cc5)[C@@H](C)[C@@H]4CC[C@@]32C)/C1=C(\CCC=C(C)C)C(=O)OCc1ccccc1	110
CCN1CCN(C(=O)c2ccccc2C(=O)O[C@@H]2CC[C@@]3(C)[C@@H](CC[C@@]4(C)[C@H]3[C@H](O)C[C@H]3/C(=C(\CCC=C(C)C)C(=O)OCc5ccccc5)[C@@H](OC(C)=O)C[C@@]34C)[C@@H]2C)CC1	27.3
CC(=O)O[C@H]1C[C@@]2(C)[C@@H](C[C@@H](O)[C@H]3[C@@]4(C)CC[C@@H](O)[C@@H](C)[C@@H]4CC[C@@]32C)/C1=C(\CCC=C(C)C)C(=O)OCc1ccccc1	92
CC(=O)O[C@H]1C[C@@]2(C)[C@@H](C[C@@H](O)[C@H]3[C@@]4(C)CC[C@@H](OC(=O)CCC(=O)N5CCOCC5)[C@@H](C)[C@@H]4CC[C@@]32C)/C1=C(\CCC=C(C)C)C(=O)OCc1ccccc1	20.5
CC(=O)O[C@H]1C[C@@]2(C)[C@@H](C[C@@H](O)[C@H]3[C@@]4(C)CC[C@@H](OC(=O)c5ccccc5C(=O)Nc5cccc(N)c5)[C@@H](C)[C@@H]4CC[C@@]32C)/C1=C(\CCC=C(C)C)C(=O)OCc1ccccc1	95.8
CC(=O)O[C@H]1C[C@@]2(C)[C@@H](CC(=O)[C@H]3[C@@]4(C)CC[C@@H](OC(=O)CCCCO[N+](=O)[O-])[C@@H](C)[C@@H]4CC[C@@]32C)/C1=C(\CCC=C(C)C)C(=O)OCc1ccccc1	112
CC(=O)O[C@H]1C[C@@]2(C)[C@@H](CC(=O)[C@H]3[C@@]4(C)CC[C@@H](OC(=O)CCCCCO[N+](=O)[O-])[C@@H](C)[C@@H]4CC[C@@]32C)/C1=C(\CCC=C(C)C)C(=O)OCc1ccccc1	115
CC(=O)O[C@H]1C[C@@]2(C)[C@@H](C[C@@H](O)[C@H]3[C@@]4(C)CC[C@@H](OC(=O)c5ccccc5C(=O)OCCc5ccc(OCCO[N+](=O)[O-])cc5)[C@@H](C)[C@@H]4CC[C@@]32C)/C1=C(\CCC=C(C)C)C(=O)OCc1ccccc1	85.9
CC(=O)O[C@H]1C[C@@]2(C)[C@@H](C[C@@H](O)[C@H]3[C@@]4(C)CC[C@@H](OC(=O)CCC(=O)Nc5ccc(N)cc5)[C@@H](C)[C@@H]4CC[C@@]32C)/C1=C(\CCC=C(C)C)C(=O)OCc1ccccc1	136

###

Measured Survival values are reported for all entries that follow.
molecular target: ATP-dependent translocase ABCB1 (Homo sapiens); test: Reversal of P-gp-mediated multidrug resistance in human KBV cells assessed as potentiation of paclitaxel-induced cytotoxicity by measuring cell survival at 5 uM after 72 hrs by MTT assay (reference value: 100.58 +/- 7.78%); assay type: cell-based
measurementLabel: Survival (%)

chemicalString	unit	resultNumber
CC(=O)O[C@H]1C[C@@]2(C)[C@@H](C[C@@H](O)[C@H]3[C@@]4(C)CC[C@@H](OC(=O)CCCCO[N+](=O)[O-])[C@@H](C)[C@@H]4CC[C@@]32C)/C1=C(\CCC=C(C)C)C(=O)OCc1ccccc1	%	96.92
CC(=O)O[C@H]1C[C@@]2(C)[C@@H](CC(=O)[C@H]3[C@@]4(C)CC[C@@H](OC(=O)CCCCO[N+](=O)[O-])[C@@H](C)[C@@H]4CC[C@@]32C)/C1=C(\CCC=C(C)C)C(=O)OCc1ccccc1	%	20.75
CC(=O)O[C@H]1C[C@@]2(C)[C@@H](C[C@@H](O)[C@H]3[C@@]4(C)CC[C@@H](OC(=O)CCC(=O)Nc5ccc(N)cc5)[C@@H](C)[C@@H]4CC[C@@]32C)/C1=C(\CCC=C(C)C)C(=O)OCc1ccccc1	%	22.26
CC(=O)O[C@H]1C[C@@]2(C)[C@@H](C[C@@H](O)[C@H]3[C@@]4(C)CC[C@@H](OC(=O)c5ccccc5C(=O)Nc5ccc(N)cc5)[C@@H](C)[C@@H]4CC[C@@]32C)/C1=C(\CCC=C(C)C)C(=O)OCc1ccccc1	%	23.58

###

test: Cytotoxicity against human KBV cells assessed as cell survival at 5 uM after 72 hrs by MTT assay relative to control; format: cell-based; settings: read-out: Survival

compound	viability at 72 h, 5 µM
CC(=O)O[C@H]1C[C@@]2(C)[C@@H](CC(=O)[C@H]3[C@@]4(C)CCC(=O)[C@@H](C)[C@@H]4CC[C@@]32C)/C1=C(\CCC=C(C)C)C(=O)OCc1ccccc1	96.6%
CC(=O)O[C@H]1C[C@@]2(C)[C@@H](C[C@@H](O)[C@H]3[C@@]4(C)CC[C@@H](OC(=O)c5ccccc5C(=O)N5CCCCC5)[C@@H](C)[C@@H]4CC[C@@]32C)/C1=C(\CCC=C(C)C)C(=O)OCc1ccccc1	110%
CC(=O)O[C@H]1C[C@@]2(C)[C@@H](C[C@@H](O)[C@H]3[C@@]4(C)CC[C@@H](O)[C@@H](C)[C@@H]4CC[C@@]32C)/C1=C(\CCC=C(C)C)C(=O)O [FUSIDIC ACID]	84.7%
CC(=O)O[C@H]1C[C@@]2(C)[C@@H](C[C@@H](O)[C@H]3[C@@]4(C)CC[C@@H](OC(=O)CCC(=O)N5CCN(C)CC5)[C@@H](C)[C@@H]4CC[C@@]32C)/C1=C(\CCC=C(C)C)C(=O)OCc1ccccc1	30.1%
CC(=O)O[C@H]1C[C@@]2(C)[C@@H](C[C@@H](O)[C@H]3[C@@]4(C)CC[C@@H](OC(=O)c5ccccc5C(=O)Oc5ccc(CCO[N+](=O)[O-])cc5)[C@@H](C)[C@@H]4CC[C@@]32C)/C1=C(\CCC=C(C)C)C(=O)OCc1ccccc1	87.5%
CC(=O)O[C@H]1C[C@@]2(C)[C@@H](C[C@@H](O)[C@H]3[C@@]4(C)CC[C@@H](OC(=O)c5ccccc5C(=O)Nc5ccc(N)cc5)[C@@H](C)[C@@H]4CC[C@@]32C)/C1=C(\CCC=C(C)C)C(=O)OCc1ccccc1	118%
CC(=O)O[C@H]1C[C@@]2(C)[C@@H](C[C@@H](O)[C@H]3[C@@]4(C)CC[C@@H](OC(=O)CCC(=O)Oc5ccc(CCO[N+](=O)[O-])cc5)[C@@H](C)[C@@H]4CC[C@@]32C)/C1=C(\CCC=C(C)C)C(=O)OCc1ccccc1	114%
